Items are presented alongside their recorded log partition 1-octanol / HPLC water, unbuffered, traces of methanol / DMSO.
# Assay comment: shake flask on a mixture of 185; loss from the water phase only; LC-QTOF peak areas
# Test parameters: room
// note: answer is a bare numeric in log10

Before answering, review these 5 worked examples.
>>> print(df.to_string())
                                   compound  value_observed
0  CC(C)C1(C)N=C(c2nc3ccccc3cc2C(=O)O)NC1=O (stereo not drawn)         -0.1003
1                c1coc(-c2nc3ccccc3[nH]2)c1           1.514
2  CCCCOC(=O)C(C)Oc1ccc(Oc2ccc(C(F)(F)F)cn2)cc1 (stereo not drawn)           1.531
3          Cc1oncc1C(=O)Nc1ccc(C(F)(F)F)cc1           2.576
4                 CCCCNS(=O)(=O)c1ccc(C)cc1           1.761

Input: Identify measured log partition 1-octanol / HPLC water, unbuffered, traces of methanol / DMSO corresponding to O=C(c1ccccc1)c1ccc(O)cc1O
Output: 2.033

Input: Identify measured log partition 1-octanol / HPLC water, unbuffered, traces of methanol / DMSO corresponding to Cc1cc(C)nc(NS(=O)(=O)c2ccc(N)cc2)n1
Output: -0.08641

Input: Identify measured log partition 1-octanol / HPLC water, unbuffered, traces of methanol / DMSO corresponding to CN/C(=N/[N+](=O)[O-])NCC1CCOC1 (stereo not drawn)
Output: -0.7277

Input: Identify measured log partition 1-octanol / HPLC water, unbuffered, traces of methanol / DMSO corresponding to NC(=O)Nc1ccc(Cl)cc1
Output: 1.214

Input: Identify measured log partition 1-octanol / HPLC water, unbuffered, traces of methanol / DMSO corresponding to Cc1cc2c3c(c1)C(c1ccccc1)=N[C@@H](NC(=O)c1ccncc1)C(=O)N3CC2
Output: 2.552

Input: Identify measured log partition 1-octanol / HPLC water, unbuffered, traces of methanol / DMSO corresponding to COC(=O)C(C)N(C(=O)c1ccco1)c1c(C)cccc1C (stereo not drawn)
Output: 2.113
